- experimental system: T1, HLA-DRB1*0701 (human)
- T1 construct: also called DR7
- method: competition with 125I probe peptide, purified HLA
# maps each entry to its pIC50
Field pIC50 (float): negative decimal logarithm of the concentration in molar.

binder: QPPICTIDVYMIMVK [Her2/neu.943]
pIC50: 6.60

Below: the item to evaluate.
Could you tell me which pIC50 is on file for TQLFEDNYALAVLDN [Her2/neu.105] ? 5.81
